Below: a set of entries, each annotated with reported Kd.
# target under test: T1, Human Serum Albumin (human, UniProt P02768 25-609)
# T1 construct: also called HSA
# T1 sequence (P02768 25-609 limits assumed): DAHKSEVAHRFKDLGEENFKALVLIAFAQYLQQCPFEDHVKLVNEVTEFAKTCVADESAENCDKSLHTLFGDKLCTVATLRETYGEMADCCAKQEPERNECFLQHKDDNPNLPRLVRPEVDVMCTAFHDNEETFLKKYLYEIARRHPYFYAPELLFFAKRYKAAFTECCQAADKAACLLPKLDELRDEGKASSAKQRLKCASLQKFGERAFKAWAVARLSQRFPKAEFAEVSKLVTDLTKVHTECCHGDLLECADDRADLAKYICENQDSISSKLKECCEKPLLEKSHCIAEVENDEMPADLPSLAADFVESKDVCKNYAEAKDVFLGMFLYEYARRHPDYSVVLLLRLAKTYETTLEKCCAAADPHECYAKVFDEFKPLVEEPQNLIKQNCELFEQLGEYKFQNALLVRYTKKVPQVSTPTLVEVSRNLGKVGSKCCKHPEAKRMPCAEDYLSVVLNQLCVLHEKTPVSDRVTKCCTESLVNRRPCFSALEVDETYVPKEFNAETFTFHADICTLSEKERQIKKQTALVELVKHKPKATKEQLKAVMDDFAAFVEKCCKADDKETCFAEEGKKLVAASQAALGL
# assay name: SPR Biacore T200, HSA on CM5 chip, ADAPT injected, 1:1 fit

{"binder": "LWWAKVWAVAELQKYGVSDFYFKLIDKAKTVEGVEALKLHILAALP (designed binder) [ADAPT variant MYDGF_07]", "unit abbreviation": "nM", "Kd": 4.7}
{"binder": "LYVAKDNADWELWQYGVSDFYRSLIWKAKTVEGVEALKLHILAALP (designed binder) [ADAPT variant ANG_16]", "unit abbreviation": "nM", "Kd": 1}
{"binder": "LRVAKSMAWHELWSYGVSDFYLRLIDKAKTVEGVEALKLHILAALP (designed binder) [ADAPT variant CRP_09]", "unit abbreviation": "nM", "Kd": 7.7}
{"binder": "LYWAKDYADYELWQYGVSDFYRSLIWKAKTVEGVEALKLHILAALP (designed binder, also called ANG_2) [ADAPT variant ANG_02]", "unit abbreviation": "nM", "Kd": 2}
{"binder": "LHYAKIMAFHELWQYGVSDFYLQLIDKAKTVEGVEALKLHILAALP (designed binder) [ADAPT variant CRP_48]", "unit abbreviation": "nM", "Kd": 15}
{"binder": "LSKAKAQAWHELYYYGVSDFYLSLIDKAKTVEGVEALKLHILAALP (designed binder) [ADAPT variant CRP_23]", "unit abbreviation": "nM", "Kd": 23}

Cited source: patent US20230250160A1
